Tested on: Caco-2 cells
procedure.text: Membrane permeability test using Caco-2 cells with preincubation
Format: in vitro ADME
test.settings: Caco-2 cells, preincubation 20 to 24 hours; apical FaSSIF/HBSS 1% DMSO pH 6.0, basal HBSS 4% BSA pH 7.4; basal sample at 180 minutes
Starred links: 1 amine or outer side, 2 acyl side, 3 side chain; linkers in the order of their positions; H or OH if unused. Positions of bridges follow the written chain, without caps; N, C: chain ends. Non-standard residues stand in square brackets, D forms with d. Residues, ends and D or L forms follow the SMILES beside them. *: point of attachment. NMedβ3hAla = C[C@H](CC(=O)[*:2])N(C)[*:1]; NMeF = CN[C@@H](Cc1ccccc1)C(=O)O; NMeT = CN[C@H](C(=O)O)[C@@H](C)O; hPhe = N[C@@H](CCc1ccccc1)C(=O)O; NMeL = CN[C@@H](CC(C)C)C(=O)O; NMeV = CN[C@H](C(=O)O)C(C)C; NMeAbu = CC[C@H](NC)C(=O)O; NMeA = CN[C@@H](C)C(=O)O; Piperidide = C1CCN(*)CC1; Abu = CC[C@H](N)C(=O)O; Sar = CNCC(=O)O
measured.parameter: Caco2 Papp (10^-6 cm/sec)

molecule	reported
CC(C)C[C@@H]1NC(=O)[C@H](CC(C)C)N(C)C(=O)[C@H](C(C)C)N(C)C(=O)[C@H](CCc2ccccc2)NC(=O)[C@H]([C@@H](C)O)N(C)C(=O)[C@@H](C(C)C)NC(=O)C[C@@H](C(=O)N2CCCCC2)NC(=O)[C@H](C(C)C)N(C)C(=O)[C@H](CC(C)C)NC(=O)[C@H](Cc2ccccc2)N(C)C(=O)[C@@H]2CCCN2C(=O)[C@H](CC(C)C)N(C)C(=O)CN(C)C1=O [pd107] ([dV][NMeT][hPhe][NMeV][NMeL]L[Sar][NMeL]P[NMeF]L[NMeV]D-Piperidide; lactam N-13)	0.81 10^-6 cm/sec

// next entry
Q: Could you tell me which Caco2 Papp (10^-6 cm/sec) is on file for CC[C@@H]1NC(=O)[C@H]([C@@H](C)O)NC(=O)[C@H](Cc2ccccc2)N(C)C(=O)[C@H](CC(C)C)N(C)C(=O)[C@H](C(C)C)N(C)C(=O)[C@H](CC)N(C)C(=O)[C@H]([C@@H](C)CC)NC(=O)[C@H](CC(C)C)N(C)C(=O)[C@H](C)N(C)C(=O)[C@H](C)NC(=O)C[C@@H](C)N(C)C(=O)[C@H](CC(C)C)N(C)C(=O)[C@H](C)N(C)C(=O)CN(C)C1=O [pd072] (cyclo(A[NMeA][NMeL]I[NMeAbu][NMeV][NMeL][NMeF]T[Abu][Sar][NMeA][NMeL][NMedβ3hAla])) ?
Result: <0.13 10^-6 cm/sec

* * *

procedure.text: Membrane permeability test using Caco-2 cells with preincubation
Type: in vitro ADME
test.settings: Caco-2; preincubation 20 to 24 hours; Apical FaSSIF/HBSS pH 6.0, Basal HBSS 4% BSA pH 7.4; 180 minutes; read-out: Caco2 Papp
Starred links: 1 amine or outer side, 2 acyl side, 3 side chain; linkers in the order of their positions; H or OH if unused. Positions of bridges follow the written chain, without caps; N, C: chain ends. Non-standard residues stand in square brackets, D forms with d. Residues, ends and D or L forms follow the SMILES beside them. *: point of attachment. NMedβ3hAla = C[C@H](CC(=O)[*:2])N(C)[*:1]; NMeF = CN[C@@H](Cc1ccccc1)C(=O)O; NMeGABA = CN(CCCC(=O)[*:2])[*:1]; NMeI = CC[C@H](C)[C@H](NC)C(=O)O; hPhe = N[C@@H](CCc1ccccc1)C(=O)O; NMeD = CN[C@@H](CC(=O)O)C(=O)O; NMeL = CN[C@@H](CC(C)C)C(=O)O; NMeV = CN[C@H](C(=O)O)C(C)C; NMeAbu = CC[C@H](NC)C(=O)O; NMeA = CN[C@@H](C)C(=O)O; Piperidide = C1CCN(*)CC1; Abu = CC[C@H](N)C(=O)O; Sar = CNCC(=O)O
measured.parameter: Papp A→B (×10⁻⁶ cm/s)
Enter your answer as a number in ×10⁻⁶ cm/s; do not include the unit.

Known results for compounds:
compound	Papp A→B (×10⁻⁶ cm/s)
CC[C@H](C)[C@H]1C(=O)N2CCC[C@H]2C(=O)N(C)[C@@H](C(C)C)C(=O)N(C)[C@@H](Cc2ccccc2)C(=O)N(C)[C@@H](C)C(=O)N(C)[C@@H](CC(C)C)C(=O)N[C@@H]([C@@H](C)O)C(=O)N(C)[C@@H](C)C(=O)N[C@@H](CCc2ccccc2)C(=O)N(C)[C@@H](CC(C)C)C(=O)N[C@H](C(=O)N2CCCCC2)CC(=O)N(C)CCCC(=O)N(C)[C@@H](CC(C)C)C(=O)N1C [pd124] ([NMeGABA][NMeL][NMeI]P[NMeV][NMeF][NMeA][NMeL]T[NMeA][hPhe][NMeL]D-Piperidide; lactam N-13)	0.13
CC[C@@H]1NC(=O)[C@H](Cc2ccccc2)N(C)C(=O)[C@@H]2CCCN2C(=O)[C@H](CC(C)C)N(C)C(=O)[C@H](C(C)C)NC(=O)[C@H](CC(C)C)N(C)C(=O)[C@H]([C@@H](C)O)NC(=O)[C@H](Cc2ccccc2)N(C)C(=O)CN(C)C(=O)C[C@@H](C)N(C)C(=O)[C@H](C(C)C)NC(=O)[C@H](CC)N(C)C(=O)[C@H](C)N(C)C1=O [pd149] (cyclo([Abu][NMeA][NMeAbu]V[NMedβ3hAla][Sar][NMeF]T[NMeL]V[NMeL]P[NMeF]))	0.2

Q: Could you tell me which Papp A→B is on file for CC[C@H](C)[C@@H]1NC(=O)[C@H](CC(C)C)N(C)C(=O)[C@H](CC(C)C)NC(=O)[C@H](C)N(C)C(=O)C[C@@H](C(=O)N2CCCCC2)NC(=O)[C@H](CC(C)C)NC(=O)[C@@H]2CCCN2C(=O)[C@H](CC(C)C)N(C)C(=O)[C@H]([C@@H](C)O)NC(=O)[C@H]([C@@H](C)CC)N(C)C(=O)[C@H](Cc2ccccc2)N(C)C(=O)[C@H](C)NC(=O)[C@H](Cc2ccccc2)N(C)C1=O [pd104] ([NMeA]L[NMeL]I[NMeF]A[NMeF][NMeI]T[NMeL]PLD-Piperidide; lactam N-13) ?
Result: 0.2

Q: Could you tell me which Papp A→B is on file for CC[C@H](C)[C@@H]1NC(=O)[C@H](Cc2ccccc2)N(C)C(=O)[C@H](CC(C)C)N(C)C(=O)[C@H](CC(C)C)NC(=O)[C@H](C)N(C)C(=O)C[C@@H](C(=O)N2CCCCC2)N(C)C(=O)[C@H](C)N(C)C(=O)[C@H](CC(C)C)NC(=O)[C@H](CC(C)C)N(C)C(=O)CNC(=O)[C@H]([C@@H](C)CC)N(C)C(=O)[C@H](Cc2ccccc2)N(C)C(=O)[C@H](C)NC1=O [pd152] ([NMeA]L[NMeL][NMeF]IA[NMeF][NMeI]G[NMeL]L[NMeA][NMeD]-Piperidide; lactam N-13) ?
Result: 1.02
